Readings of cAMP EC50 (1.0% HSA) for the listed binders
Target: human GLP-1 receptor (human, UniProt P43220 24-463)
Test: cell-based or functional assay
Number in nM, nothing else.

Below are worked cases with known answers.
BINDER	ENDPOINT UNIT	NUMERIC READOUT
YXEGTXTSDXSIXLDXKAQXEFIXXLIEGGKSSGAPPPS (Aib2, αMeF(2F)6, 2Nal10, αMeL13, Orn16, Aib20, D-Glu24, αMeY25; acylated K17, K31 (groups as in name); C-terminal amide)	nM	39.3
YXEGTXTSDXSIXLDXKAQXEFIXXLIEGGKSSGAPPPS (Aib2, αMeF(2F)6, Nle10, αMeL13, Orn16, Aib20, D-Glu24, αMeY25; acylated K17, K31 (groups as in name); C-terminal amide)	nM	28.5

Problem: Name the reported cAMP EC50 (1.0% HSA) value associated with the binder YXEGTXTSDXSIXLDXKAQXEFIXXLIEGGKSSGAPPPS (Aib2, αMeF6, αMeF10, αMeL13, Orn16, Aib20, D-Glu24, αMeY25; acylated K17, K31 (groups as in name); C-terminal amide)
Result: 387

Problem: Repeat with YXEGTXTSDVSIXLDXKAQXEXIXXLIEGGKSSGAPPPS (Aib2, αMeF(2F)6, αMeL13, Orn16, Aib20, αMeF22, D-Glu24, αMeY25; acylated K17, K31 (groups as in name); C-terminal amide)
Result: 76.8

Problem: Repeat with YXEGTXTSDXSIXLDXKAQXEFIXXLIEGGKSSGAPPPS (Aib2, αMeF(2F)6, OMeY10, αMeL13, Orn16, Aib20, D-Glu24, αMeY25; acylated K17, K31 (groups as in name); C-terminal amide)
Result: 21.6

Problem: Repeat with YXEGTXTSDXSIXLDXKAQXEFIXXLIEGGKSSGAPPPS (Aib2, αMeF(2F)6, ChG10, αMeL13, Orn16, Aib20, D-Glu24, αMeY25; acylated K17, K31 (groups as in name); C-terminal amide)
Result: 227
